- test_target: hGIPR (Homo sapiens, UniProt P48546)
- Sequence (P48546 22-466): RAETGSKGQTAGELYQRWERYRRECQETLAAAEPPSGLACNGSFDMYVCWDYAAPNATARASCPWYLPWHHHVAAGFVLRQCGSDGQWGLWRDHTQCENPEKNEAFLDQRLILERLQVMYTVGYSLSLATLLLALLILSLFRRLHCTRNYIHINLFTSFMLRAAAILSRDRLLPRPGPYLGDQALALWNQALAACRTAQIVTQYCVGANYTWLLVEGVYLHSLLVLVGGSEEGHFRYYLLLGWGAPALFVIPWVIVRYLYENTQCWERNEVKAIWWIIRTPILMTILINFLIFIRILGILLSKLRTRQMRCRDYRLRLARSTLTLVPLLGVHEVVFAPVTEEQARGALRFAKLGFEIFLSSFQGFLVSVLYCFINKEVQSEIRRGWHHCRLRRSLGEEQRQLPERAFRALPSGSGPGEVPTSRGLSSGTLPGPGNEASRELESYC
- experiment_summary: Functional cAMP activity in the presence of 1% HSA
- Type: cell-based
- cond: read-out: cAMP Rel EC50, hGIPR
Starred links: 1 amine or outer side, 2 acyl side, 3 side chain; linkers in the order of their positions; H or OH if unused. Non-standard residues stand in square brackets, D forms with d. Groups on a side chain read outwards from the residue. No end group written: not given here. *: point of attachment. C18 diacid = O=C(O)CCCCCCCCCCCCCCCCC(=O)*; αMePhe(2-F) = C[C@](N)(Cc1ccccc1F)C(=O)O; γGlu = O=C(O)[C@H](CCC(=O)[*:2])N[*:1]; NMeY = CN[C@@H](Cc1ccc(O)cc1)C(=O)O; αMe4Pal = C[C@](N)(Cc1ccncc1)C(=O)O; αMeY = C[C@](N)(Cc1ccc(O)cc1)C(=O)O; 4Pal = N[C@@H](Cc1ccncc1)C(=O)O; αMeL = CC(C)C[C@](C)(N)C(=O)O; αMeS = C[C@](N)(CO)C(=O)O; Orn = NCCC[C@H](N)C(=O)O; Dap = NC[C@H](N)C(=O)O; AEEA = NCCOCCOCC(=O)O; Aib = CC(C)(N)C(=O)O
property_measured: log10(EC50) (log10 of the value in nM)
Remember, log10 of EC50, in nM.

As a guide, the following entries are already answered.
H-Y[Aib]QGTFTSD[4Pal][αMeS]Q[αMeL]LD[Orn]K([dE-γGlu-C18 diacid])AQ[αMe4Pal]QFIE[αMeY]LIA[Aib]GPSSGEPPPSGGGE-NH2 [Example 1182]: 0.44
H-Y[Aib]QGTFTSD[4Pal]SQ[αMeL]LDKK([AEEA-γGlu-C18 diacid])AQ[αMe4Pal]AFIEWLIEGGPSSGAPPPSGS-NH2 [Example 830]: 1.65
H-Y[Aib]QGT[αMePhe(2-F)]TSD[4Pal][αMeS]I[αMeL]LD[Orn]K([AEEA-AEEA-γGlu-C18 diacid])AQ[Aib][Orn]FI[dE][αMeY]LIEGGPSSGAPEPSEG-NH2 [Example 472]: -0.03
H-Y[Aib]QGTFTSDFS[Orn][αMeL]LDKK([AEEA-γGlu-C18 diacid])AQ[Aib]AFIEWLLEGGPSSGAPPPEGE-NH2 [Example 120]: 1.52
H-Y[Aib]QGTFTSDFS[Dap][αMeL]LDKK([AEEA-γGlu-C18 diacid])AQ[Aib]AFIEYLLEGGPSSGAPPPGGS-NH2 [Example 68]: 1.93

Give its log10(EC50) value. Item: H-Y[Aib]QGTFTSD[4Pal]S[Orn][αMeL]LDKK([γGlu-γGlu-C18 diacid])AQ[αMe4Pal]AFIEYLIAGGPSSGEPPPSGE-NH2 [Example 979] 1.28

Give its log10(EC50) value. Item: Y[Aib]QGT[αMePhe(2-F)]TSD[4Pal][αMeS]I[αMeL]LD[Orn]K([γGlu-γGlu-C18 diacid])AQ[Aib][Orn]FI[dE][αMeY]LTEGGPSSGEPPPEGTEE-NH2 [Example 597] 0.38

Give its log10(EC50) value. Item: H-Y[Aib]QGT[αMePhe(2-F)]TSD[4Pal][αMeS]I[αMeL]LD[Orn]K([AEEA-γGlu-C18 diacid])AQ[αMe4Pal]EFI[dE][αMeY]LVEGGPSSGEPPPTGE-NH2 [Example 1153] 0.14

Give its log10(EC50) value. Item: H-[NMeY][Aib]QGTFTSD[4Pal][αMeS]Q[αMeL]LD[Orn]K([dE-γGlu-C18 diacid])AQ[αMe4Pal]QFIQ[αMeY]LIE[Aib]GPSSGAPPPSGGGE-NH2 [Example 1134] 0.38

Give its log10(EC50) value. Item: H-Y[Aib]QGTFTSDFS[Orn][αMeL]LDKK([AEEA-γGlu-C18 diacid])AQ[Aib]AFIEYLLE[Aib]GHSSGAPPPSGE-NH2 [Example 247] 1.11

Give its log10(EC50) value. Item: H-Y[Aib]QGT[αMePhe(2-F)]TSD[4Pal]SILLD[Orn]K([γGlu-γGlu-C18 diacid])AQ[Aib]AFIE[αMeY]LEEGGPSSGAPPPSGTGE-NH2 [Example 665] 0.32
